Measured target: Prostaglandin G/H synthase 2 (Homo sapiens, UniProt P35354)
Sequence (P35354 whole entry): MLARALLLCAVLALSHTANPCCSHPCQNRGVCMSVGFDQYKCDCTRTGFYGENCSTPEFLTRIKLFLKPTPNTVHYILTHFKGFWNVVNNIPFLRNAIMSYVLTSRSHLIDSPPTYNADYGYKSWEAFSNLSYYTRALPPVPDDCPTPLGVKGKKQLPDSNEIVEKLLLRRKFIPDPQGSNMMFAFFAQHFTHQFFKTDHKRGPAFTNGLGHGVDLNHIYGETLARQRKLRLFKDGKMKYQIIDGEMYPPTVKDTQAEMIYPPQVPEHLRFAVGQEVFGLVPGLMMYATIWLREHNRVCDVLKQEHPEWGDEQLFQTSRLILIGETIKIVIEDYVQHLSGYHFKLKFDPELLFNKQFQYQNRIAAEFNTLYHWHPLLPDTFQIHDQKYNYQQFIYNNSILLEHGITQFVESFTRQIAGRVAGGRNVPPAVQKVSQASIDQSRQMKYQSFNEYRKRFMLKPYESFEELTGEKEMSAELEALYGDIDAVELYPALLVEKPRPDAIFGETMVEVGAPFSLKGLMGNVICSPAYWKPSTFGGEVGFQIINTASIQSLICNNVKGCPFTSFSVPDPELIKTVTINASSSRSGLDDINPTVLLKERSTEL
pIC50: −log10 of the molar value.
Recorded metric: pIC50

- Smiles entry: "O=C(O)c1cn(-c2ccc(-c3ccc(C(=O)N4CCNCC4)cc3)cc2)cc(O)c1=O"
  Recorded metric: "pIC50"
  Endpoint result: "< 4.00"
- Smiles entry: "N#Cc1cc(-c2ccc(C(=O)N3CCNCC3)cc2)ccc1-n1cc(O)c(=O)c(C(=O)O)c1"
  Recorded metric: "pIC50"
  Endpoint result: "< 4.00"

---

Assay protocol: Inhibition of human Avi-tagged MUS81 (246 to 551 residues)/2x8His-tagged EME1 (246 to 570 residues) extracted from Escherichia coli BL21 Gold (DE3) using branched DNA as substrate preincubated for 15 mins followed by substrate addition and measured after 90 mins by FRET assay
Examples of compounds with documented IC50 follow.
Recorded metric: IC50 (nM)

- Smiles entry: "O=C(O)c1nc(-c2cccc(-c3ccccc3)c2)[nH]c(=O)c1O"
  Limit operator: "="
  Endpoint result: 2000
- Smiles entry: "O=C(O)c1cn(-c2ccc(-c3ccccc3)cc2)cc(O)c1=O"
  Limit operator: "="
  Endpoint result: 660
- Smiles entry: "O=C(O)c1cn(-c2ccc(N3CCNCC3)cc2)cc(O)c1=O"
  Limit operator: "="
  Endpoint result: 470
- Smiles entry: "CNC(=O)c1nc(-c2ccccc2)[nH]c(=O)c1O"
  Limit operator: ">"
  Endpoint result: 100000
- Smiles entry: "N#CCc1ccc(-c2ccccc2-c2nc(C(=O)O)c(O)c(=O)[nH]2)cc1"
  Limit operator: "="
  Endpoint result: 2800
- Smiles entry: "O=C(O)c1nc(-c2ccc3ccccc3c2)[nH]c(=O)c1O"
  Limit operator: "="
  Endpoint result: 1500
- Smiles entry: "O=C(O)c1nc(-c2ccccc2-c2ccccc2)[nH]c(=O)c1O"
  Limit operator: "="
  Endpoint result: 4500
- Smiles entry: "Cc1nc(C(=O)O)c(O)c(=O)[nH]1"
  Limit operator: ">"
  Endpoint result: 100000
- Smiles entry: "O=C(O)c1nc(-c2ccccc2)nc(O)c1O"
  Limit operator: "="
  Endpoint result: 3900
- Smiles entry: "O=C(O)c1nc(-c2ccc(Cl)cc2)nc(O)c1O"
  Limit operator: "="
  Endpoint result: 2100
- Smiles entry: "COC(=O)c1nc(-c2ccccc2)[nH]c(=O)c1O"
  Limit operator: ">"
  Endpoint result: 100000
- Smiles entry: "O=C(O)c1[nH]c(-c2ccc(-c3ccccc3)cc2)cc(=O)c1O"
  Limit operator: "="
  Endpoint result: 1100

---

Measured target: GABA-A receptor; anion channel
Assay protocol: Inhibition of GABA (unknown origin)
Measured IC50, listed per entry.
Recorded metric: IC50

- Smiles entry: "N#Cc1cc(-c2ccc(C(=O)N3CCNCC3)cc2)ccc1-n1cc(O)c(=O)c(C(=O)O)c1"
  Endpoint result: "> 100 µM"
- Smiles entry: "O=C(O)c1cn(-c2ccc(-c3ccc(C(=O)N4CCNCC4)cc3)cc2)cc(O)c1=O"
  Endpoint result: "> 100 µM"

---

Assay protocol: Inhibition of human Avi-tagged MUS81 (246 to 551 residues)/2x8His-tagged EME1 (246 to 570 residues) extracted from Escherichia coli BL21 Gold (DE3) using branched DNA as substrate preincubated for 15 mins followed by substrate addition and measured after 90 mins by FRET assay
Reported IC50 values follow for various compounds

- Smiles entry: "NC(=O)c1nc(-c2ccccc2)[nH]c(=O)c1O"
  Result units: "nM"
  Limit operator: ">"
  IC50: 100000
- Smiles entry: "O=C(O)c1nc(-c2ccc(Br)cc2)nc(O)c1O"
  Result units: "nM"
  Limit operator: "="
  IC50: 2000
- Smiles entry: "CN(C)C(=O)c1nc(-c2ccccc2)[nH]c(=O)c1O"
  Result units: "nM"
  Limit operator: ">"
  IC50: 100000
- Smiles entry: "O=C(O)c1nc(C2CCCCC2)nc(O)c1O"
  Result units: "nM"
  Limit operator: "="
  IC50: 2800
- Smiles entry: "N#Cc1cc(N2CCNCC2)ccc1-n1cc(O)c(=O)c(C(=O)O)c1"
  Result units: "nM"
  Limit operator: "="
  IC50: 470
- Smiles entry: "O=C(O)c1cn(-c2ccc(-c3ccc(C(=O)N4CCNCC4)cc3)cc2)cc(O)c1=O"
  Result units: "nM"
  Limit operator: "="
  IC50: 320
- Smiles entry: "O=C(O)c1nc(-c2ccccc2Cl)[nH]c(=O)c1O"
  Result units: "nM"
  Limit operator: "="
  IC50: 3800
- Smiles entry: "O=C(O)c1cc(-c2ccc(-c3ccccc3)cc2)[nH]c(=O)c1O"
  Result units: "nM"
  Limit operator: "="
  IC50: 4100
- Smiles entry: "O=C(O)c1nc(-c2cccc(Cl)c2)nc(O)c1O"
  Result units: "nM"
  Limit operator: "="
  IC50: 5600
- Smiles entry: "N#Cc1cc(-c2ccc(C(=O)N3CCNCC3)cc2)ccc1-n1cc(O)c(=O)c(C(=O)O)c1"
  Result units: "nM"
  Limit operator: "="
  IC50: 270
- Smiles entry: "O=C(O)c1nc(-c2ccc(N3CCNCC3)cc2)[nH]c(=O)c1O"
  Result units: "nM"
  Limit operator: "="
  IC50: 1200
- Smiles entry: "O=C(O)c1nc(-c2ccc(-c3ccccc3)cc2)[nH]c(=O)c1O"
  Result units: "nM"
  Limit operator: "="
  IC50: 2400

---

Assay protocol: Metabolic stability in rat hepatocytes assessed as intrinsic clearance measured per million cells
Type: ADME, cell-based, Hepatocyte
Condition label: read-out: CLH
Overview of recorded hepatocyte CLint for various compounds
Recorded metric: hepatocyte CLint (µL/min/1e6 cells)

- Smiles entry: "O=C(O)c1cn(-c2ccc(-c3ccc(C(=O)N4CCNCC4)cc3)cc2)cc(O)c1=O"
  Endpoint result: 11
- Smiles entry: "N#Cc1cc(-c2ccc(C(=O)N3CCNCC3)cc2)ccc1-n1cc(O)c(=O)c(C(=O)O)c1"
  Endpoint result: 10

---

Tested on: PDE
Assay protocol: Inhibition of PDE (unknown origin)
Type: toxicity, Homo sapiens

- Smiles entry: "O=C(O)c1cn(-c2ccc(-c3ccc(C(=O)N4CCNCC4)cc3)cc2)cc(O)c1=O"
  IC50: "> 100 µM"
- Smiles entry: "N#Cc1cc(-c2ccc(C(=O)N3CCNCC3)cc2)ccc1-n1cc(O)c(=O)c(C(=O)O)c1"
  IC50: "> 100 µM"
